log10 of IC50 values for the compounds below.
- tgt: Sodium- and chloride-dependent glycine transporter 1 (Homo sapiens, UniProt P48067)
- Sequence (P48067 whole entry): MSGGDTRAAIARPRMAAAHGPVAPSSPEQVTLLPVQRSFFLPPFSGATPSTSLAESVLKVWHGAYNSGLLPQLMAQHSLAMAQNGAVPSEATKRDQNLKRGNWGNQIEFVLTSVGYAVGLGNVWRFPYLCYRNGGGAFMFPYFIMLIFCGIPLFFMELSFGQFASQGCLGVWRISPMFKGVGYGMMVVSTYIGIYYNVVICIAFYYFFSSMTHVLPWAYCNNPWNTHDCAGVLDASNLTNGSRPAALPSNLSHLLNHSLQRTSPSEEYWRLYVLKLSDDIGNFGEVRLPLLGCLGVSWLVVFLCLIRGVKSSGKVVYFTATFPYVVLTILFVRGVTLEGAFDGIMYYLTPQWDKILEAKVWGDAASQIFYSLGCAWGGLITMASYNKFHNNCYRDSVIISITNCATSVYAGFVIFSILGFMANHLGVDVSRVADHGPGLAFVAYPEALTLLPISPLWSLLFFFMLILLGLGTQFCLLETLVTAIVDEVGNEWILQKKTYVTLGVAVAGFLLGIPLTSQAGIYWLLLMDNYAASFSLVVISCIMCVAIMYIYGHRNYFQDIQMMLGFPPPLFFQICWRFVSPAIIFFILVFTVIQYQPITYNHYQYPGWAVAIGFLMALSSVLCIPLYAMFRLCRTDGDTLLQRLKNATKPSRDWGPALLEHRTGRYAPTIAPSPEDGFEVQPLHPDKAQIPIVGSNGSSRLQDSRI
- assay.notes: Inhibition of [3H]glycine uptake using CHO cells transfected with GlyT-1b transporter
Plainly stated, the numbers are log10 of IC50 given in nM.

Study these solved cases before continuing.
CN(CCC(Oc1ccc(Cl)cc1)c1ccccc1)CC(=O)O (stereo unspecified) : 3.10
CN(CC[C@@H](Oc1ccc(C(F)(F)F)cc1)c1ccccc1)CC(=O)[O-].[Li+] : 2.10
CN(CCC(Oc1ccc(Cl)c(C(F)(F)F)c1)c1ccccc1)CC(=O)O (stereo unspecified) : 2.60

Problem: Given CN(CCC(Oc1ccc(C(F)(F)F)cc1)c1ccc(Cl)cc1)CC(=O)O (stereo unspecified) , state its recorded log10 of IC50.
Result: 2.00

Problem: Then Cc1ccc(OC(CCN(C)CC(=O)O)c2ccccc2)cc1 (stereo unspecified) ?
Result: 3.40

Problem: Try this compound next: CN(CCC(=O)O)CCC(Oc1ccc(C(F)(F)F)cc1)c1ccccc1 (stereo unspecified)
Result: 4.50

Problem: And what about the compound CN(CC[C@H](Oc1ccc(-c2ccccc2)cc1)c1ccccc1)CC(=O)O ?
Result: 2.99

Problem: Now the same for CN(CC[C@H](Oc1ccc(C(C)(C)C)cc1)c1ccccc1)CC(=O)O
Result: 4.07

Problem: How about CN(CCC(Oc1cccc(C(F)(F)F)c1)c1ccccc1)CC(=O)O (stereo unspecified) ?
Result: 3.40

Problem: Consider next the compound CN(CCC(Oc1ccc(C(F)(F)F)cc1)c1ccc(F)cc1)CC(=O)O (stereo unspecified) in the same way.
Result: 2.40

Problem: Cool, now COc1ccccc1OC(CCN(C)CC(=O)O)c1ccccc1 (stereo unspecified)
Result: 4.30
